- EXPERIMENTAL TARGET: Protein kinase C theta type (Homo sapiens) (UniProt Q04759);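 also: each value is a mean inhibition of PKC-theta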
- Sequence (Q04759 whole entry, looked up): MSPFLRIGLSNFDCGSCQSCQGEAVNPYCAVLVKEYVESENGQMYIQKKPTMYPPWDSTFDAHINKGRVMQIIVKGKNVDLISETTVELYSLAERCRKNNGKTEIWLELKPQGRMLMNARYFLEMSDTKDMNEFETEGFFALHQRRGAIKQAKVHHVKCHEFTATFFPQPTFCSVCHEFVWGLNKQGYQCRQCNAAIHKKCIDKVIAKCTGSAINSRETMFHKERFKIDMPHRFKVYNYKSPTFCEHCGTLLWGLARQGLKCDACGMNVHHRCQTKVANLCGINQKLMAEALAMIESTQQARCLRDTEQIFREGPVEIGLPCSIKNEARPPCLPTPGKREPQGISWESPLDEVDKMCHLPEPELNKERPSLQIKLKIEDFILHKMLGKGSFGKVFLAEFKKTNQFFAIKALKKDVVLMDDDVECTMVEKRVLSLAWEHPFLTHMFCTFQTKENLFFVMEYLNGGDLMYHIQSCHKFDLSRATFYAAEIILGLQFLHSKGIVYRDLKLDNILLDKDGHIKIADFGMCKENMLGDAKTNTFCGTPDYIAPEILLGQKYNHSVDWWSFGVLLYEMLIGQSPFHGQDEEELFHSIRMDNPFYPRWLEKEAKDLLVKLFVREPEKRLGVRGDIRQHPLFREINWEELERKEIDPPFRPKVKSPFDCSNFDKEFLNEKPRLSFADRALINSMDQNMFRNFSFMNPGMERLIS
- REPORTED CONDITIONS: at 1 µM
inhibition of 5% or higher: satisfied. Under 5%: not satisfied.

Has COC(=O)Nc1nc2cc(Oc3ccc(NC(=O)Nc4cccc(C(=O)O)c4)cc3)ccc2[nH]1 a recorded inhibition greater than or equal to 5%?
not satisfied

Could you please find out whether CCn1c(-c2nonc2N)nc2c(C#CC(C)(C)O)nc(CN3CCCC3)cc21 has inhibition that meets 5% or exceeds it?
satisfied

Check the entry Cc1nn(C)c2cc(N(C)c3ccnc(Nc4cccc(S(N)(=O)=O)c4)n3)ccc12 : does inhibition equal or exceed 5%?
not satisfied

API: above_or_equal(metric=inhibition, cutoff=5%) for item NC(=O)c1cccc(Nc2nccc(Nc3cccc4[nH]ncc34)n2)c1
satisfied

// provenance: ChEMBL document CHEMBL1961873
